// provenance: ChEMBL document CHEMBL4680123

Experiment: Chemical stability of compound in DNMT3A-c enzyme buffer assessed as half life at 1 mM by HPLC analysis
Format: physicochemical
outcome-measure: half-life at 1000 µM (h)
One number for each entry, in h.

{"compound": "COc1ccc([N+](=O)[O-])c([C@H]2Oc3ccccc3C(=O)[C@]2(Br)[N+](=O)[O-])c1 (racemic)", "half-life at 1000 µM [h]": 7}

Task: Name the recorded half-life at 1000 µM for O=C1c2ccccc2OC(c2ccccc2[N+](=O)[O-])C1(Cl)[N+](=O)[O-] (stereo not drawn) .
Result: 1

###

Test: Chemical stability of compound in DNMT3A-c enzyme buffer assessed as half life at 1 mM by HPLC analysis
Type: physicochemical
outcome-measure: half-life at 1000 µM (h)
Answers are plain numbers, in h.

Known half-life at 1000 µM results, listed for orientation:
{"molecule": "O=C1c2ccccc2O[C@H](c2ccccc2[N+](=O)[O-])[C@@]1(Br)[N+](=O)[O-] (racemic)", "endpoint-result": 1.7}
{"molecule": "COc1ccc([N+](=O)[O-])c(C2Oc3ccccc3C(=O)C2(Cl)[N+](=O)[O-])c1 (centres undefined)", "endpoint-result": 3.4}

Task: Could you share which half-life at 1000 µM value was measured for O=C1c2ccccc2O[C@H](c2ccccc2[N+](=O)[O-])[C@]1(Br)[N+](=O)[O-] (racemic) ?
Result: 0.7

###

Molecular target: DNA (cytosine-5)-methyltransferase 3A (Homo sapiens) (UniProt Q9Y6K1)
Sequence (Q9Y6K1 whole entry, looked up, the tested form may be a part): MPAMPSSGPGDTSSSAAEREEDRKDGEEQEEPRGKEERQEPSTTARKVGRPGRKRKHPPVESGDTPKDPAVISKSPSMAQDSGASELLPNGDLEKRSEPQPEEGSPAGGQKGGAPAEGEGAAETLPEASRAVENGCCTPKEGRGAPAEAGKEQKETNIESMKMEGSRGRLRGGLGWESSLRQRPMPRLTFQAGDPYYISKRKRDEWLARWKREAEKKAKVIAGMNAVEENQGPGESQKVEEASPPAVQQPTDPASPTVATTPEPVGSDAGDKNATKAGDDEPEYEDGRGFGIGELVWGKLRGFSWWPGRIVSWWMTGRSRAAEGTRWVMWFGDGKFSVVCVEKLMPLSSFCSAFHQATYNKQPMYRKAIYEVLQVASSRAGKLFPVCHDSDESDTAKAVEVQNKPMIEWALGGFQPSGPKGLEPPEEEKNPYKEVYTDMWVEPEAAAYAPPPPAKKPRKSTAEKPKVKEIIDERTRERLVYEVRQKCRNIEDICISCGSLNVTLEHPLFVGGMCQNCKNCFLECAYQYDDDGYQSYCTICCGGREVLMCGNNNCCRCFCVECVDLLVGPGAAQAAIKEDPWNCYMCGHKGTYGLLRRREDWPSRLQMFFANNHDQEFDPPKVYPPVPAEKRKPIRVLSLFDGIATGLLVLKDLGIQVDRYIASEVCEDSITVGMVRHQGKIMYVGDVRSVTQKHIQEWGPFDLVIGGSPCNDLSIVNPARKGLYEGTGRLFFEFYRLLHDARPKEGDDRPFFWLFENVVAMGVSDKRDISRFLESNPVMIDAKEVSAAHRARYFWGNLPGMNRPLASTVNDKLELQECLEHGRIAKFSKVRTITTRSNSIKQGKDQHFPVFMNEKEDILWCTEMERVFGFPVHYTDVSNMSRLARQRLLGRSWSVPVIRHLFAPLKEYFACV
Assay: Inhibition of human DNMT3A catalytic domain expressed in Escherichia coli Rosetta-gamiTM 2(DE3) pLysS competent cells using biotinylated 6-FAM double strand DNA comprising unique CpG site […] incubated for 1 hrs by fluorescence based assay
Details: read-out: EC50
Assign pEC50 to each entry below.
Answers are plain numbers, as −log10 of the molar value.

Hey, can you go through the list below and give me pEC50 for every item?
1. O=C1c2ccccc2OC(c2ccccc2)C1(Br)[N+](=O)[O-] (stereo unspecified)
2. O=C1c2ccccc2OC(c2ccccc2[N+](=O)[O-])C1(I)[N+](=O)[O-] (racemic)
3. COc1ccc([N+](=O)[O-])c([C@H]2Oc3ccccc3C(=O)[C@]2(Br)[N+](=O)[O-])c1 (racemic)
4. COc1ccc([N+](=O)[O-])c([C@H]2Oc3ccccc3C(=O)[C@@]2(Br)[N+](=O)[O-])c1 (racemic)
5. COc1ccc([N+](=O)[O-])c(C2Oc3ccccc3C(=O)C2(Cl)[N+](=O)[O-])c1 (stereo unspecified)
6. O=C1c2ccccc2O[C@H](c2ccccc2F)[C@@]1(Br)[N+](=O)[O-] (racemic)
7. COc1ccc([N+](=O)[O-])c([C@H]2Oc3ccccc3C(=O)[C@]2(I)[N+](=O)[O-])c1 (racemic)
8. O=C1c2ccccc2OC(c2ccccc2[N+](=O)[O-])C1(Cl)[N+](=O)[O-] (stereo unspecified)

Result:
1: 5.17; 2: 5.55; 3: 5.28; 4: 5.33; 5: 5.36; 6: 5.24; 7: 5.70; 8: 5.36

Please give pEC50 for each item listed below.
1. O=C1c2ccccc2O[C@H](c2ccccc2[N+](=O)[O-])[C@]1(Br)[N+](=O)[O-] (racemic)
2. O=C1c2ccccc2O[C@H](c2ccccc2[N+](=O)[O-])[C@@]1(Br)[N+](=O)[O-] (racemic)

Result:
1. 5.29
2. 5.49
